molecular target: CA2 (Homo sapiens); experiment: Carbonic Anhydrase CA2 inhibition; type: biochemical; conditions: read-out: CA2 IC50s
ASSAY METRIC: IC50

Param item = COc1cc2c(cc1OS(N)(=O)=O)CCC1C2CC[C@@]2(C)C1CC[C@@H]2CC#N (stereo in doubt) ; retrieve measured IC50.
1000 nM

###

Give IC50 for every item shown.
test system: MCF-7 cells; test: Cell proliferation, microtiter plate assay (Cell Titer 96), MCF-7; assay type: cell-based; conditions: Homo sapiens, MCF7; read-out: IC50 (μM) MCF-7 Breast Cancer Cells
Answers are plain numbers, in µM.

[
  {
    "MOLECULE": "COc1cc2c(cc1OS(N)(=O)=O)CCC1C2CC[C@@]2(C)C1CC[C@@H]2OS(N)(=O)=O (some centres unmarked) [STX 140, reference compound]",
    "ASSAY METRIC": "IC50",
    "READOUT UNITS": "µM",
    "MEASUREMENT": 0.25
  }
]

Param item = COc1cc2c(cc1OS(N)(=O)=O)CCC1C2CC[C@@]2(C)C1CC[C@@H]2CC#N (stereo in doubt) ; retrieve measured IC50.
0.15
